These measurements were taken from the supplement of paper PMC8633005.

test system: FM-MEL-6; test: drug sensitivity score (DSS) (DSS (unitless, 0-50 scale)); higher = more sensitive (stronger viability inhibition); extreme values may be limits of the assay; settings: 72 h; culture: 2D
Think of 5 as a floor: if drug sensitivity score stands on it or above, it is Fulfilled; beneath it, Not fulfilled.

Study these solved cases before continuing.
Cn1ncnc1[C@H]1c2n[nH]c(=O)c3cc(F)cc(c23)N[C@@H]1c1ccc(F)cc1: Not fulfilled
CO[C@@H](C(=O)N1Cc2[nH]nc(NC(=O)c3ccc(N4CCN(C)CC4)cc3)c2C1)c1ccccc1: Not fulfilled
COc1cc2ncnc(Nc3ccc(F)c(Cl)c3)c2cc1NC(=O)/C=C/CN1CCCCC1: Not fulfilled
O=C1CCc2c(Oc3ccc4c(c3)[C@@H]3[C@H](O4)[C@H]3c3nc4cc(C(F)(F)F)ccc4[nH]3)ccnc2N1: Fulfilled
CON(C)C(=O)N1N=C(c2cc(F)ccc2F)S[C@@]1(CCCN)c1ccccc1: Fulfilled

Query: Identify whether the reported drug sensitivity score of the following compound is 5 or greater: CC(O)(CS(=O)(=O)c1ccc(F)cc1)C(=O)Nc1ccc(C#N)c(C(F)(F)F)c1 (centres undefined) [Bicalutamide]
Response: Not fulfilled
